test_name: qHTS of pediatric cancer cell lines to identify multiple opportunities for drug repurposing: Primary screen for TC32 cells (AID 1347089); note: nearly all actives have a fitted effect of over 60% in size
run_conditions: TC32 Ewing sarcoma viability, CellTiter-Glo luminescence, 48 h; series mostly up to 45.8 µM
Inconclusive results are not listed. The source made the active and inactive calls. Calls come from the whole dose curve; as a rule, active = well fitted cell-killing curve with a large enough effect; inconclusive = small, poorly fitted or top-dose-only effect; inactive = flat fitted curve, though single readings scatter.
// allowed return values: yes (1) for active, no (0) for inactive

Worked examples, 10 compounds total:
# compound, class
rows = [
    ("C[C@H](NC(=O)Cc1cc(F)cc(F)c1)C(=O)N[C@@H]1C(=O)N(C)c2ccccc2-c2ccccc21", "no (0)"),
    ("CCc1ccc(CCOc2ccc(CC3SC(=O)NC3=O)cc2)nc1 (stereo not drawn)", "no (0)"),
    ("O=C1CCCC2=C1C(c1[nH]ncc1Cl)N=C(Nc1nc3ccccc3o1)N2 (stereo not drawn)", "no (0)"),
    ("NS(=O)(=O)c1cc2c(cc1Cl)NC=NS2(=O)=O", "no (0)"),
    ("CC(C[N+](C)(C)C)OC(N)=O (stereo not drawn)", "no (0)"),
    ("Fc1ccc(Cl)cc1-c1nc(Nc2ccncc2)c2nccnc2n1", "no (0)"),
    ("CCCS(=O)(=O)Nc1ccc(F)c(C(=O)c2c[nH]c3ncc(-c4ccc(Cl)cc4)cc23)c1F", "no (0)"),
    ("CCC(=O)N[C@H]1CC[C@H](C(=O)N(C)c2ccc(-c3nc4ccccc4o3)cc2)C1", "no (0)"),
    ("O=c1n(CCCN2CCN(c3cccc(Cl)c3)CC2)nc2ccccn12", "no (0)"),
    ("CN(C(=O)c1ccc(F)cc1C(F)(F)F)C1CCN(c2nnc(-c3ccnn3C)c3ccccc23)CC1", "no (0)"),
]

Exercise: Outcome? OC[C@H](Cc1ccccc1)Nc1nc(Oc2ccc3c(c2)CCC3)nc2c1ncn2Cc1ccc(-c2ccccc2)cc1
Solution: no (0)

Exercise: Outcome? CC(c1cc2ccccc2s1)N(O)C(N)=O (stereo not drawn)
Solution: no (0)

Exercise: Outcome? Cc1cc(C=c2sc3nc4ccccc4n3c2=O)c(C)n1-c1ccccc1
Solution: no (0)

Exercise: Outcome? Nc1nc2c(ncn2COCCO)c(=O)[nH]1
Solution: no (0)

Exercise: Outcome? COc1ccccc1-c1cccc(-c2c(O)c3cc(C#N)c(Cl)cc3[nH]c2=O)c1
Solution: no (0)

Exercise: Outcome? CNC(=O)c1ccc(N2C(=S)N(c3ccc(C#N)c(C(F)(F)F)c3)C(=O)C2(C)C)cc1F
Solution: no (0)

Exercise: Outcome? Cc1cc(-c2ccc(CC(=O)Nc3ccc(-c4cccnc4)cc3)cc2)ccn1
Solution: no (0)

Exercise: Outcome? CCN(CC)CCCC(C)Nc1nc(C)cc(Nc2ccc3nc(C)cc(N)c3c2)n1 (stereo not drawn)
Solution: no (0)

Exercise: Outcome? CCOC(=O)C1=C[C@]2(CC)CCCN3CCc4c(n1c1ccccc41)[C@@H]32
Solution: no (0)

Exercise: Outcome? O=c1[nH]cnc2[nH]ncc12
Solution: no (0)

Exercise: Outcome? CC1(C)CNc2cc(NC(=O)c3cccnc3NCc3ccncc3)ccc21
Solution: yes (1)

Exercise: Outcome? CCCS(=O)(=O)Nc1ccc(F)c(C(=O)c2c[nH]c3ncc(Cl)cc23)c1F
Solution: no (0)

###

test_name: qHTS for Inhibitors of ATXN expression: Validation of Cytotoxic Assay (AID 588349)
run_conditions: cytotoxicity counter-screen for ATXN expression inhibitors, cell viability; series mostly up to 57.1 µM
Description: Spinocerebellar ataxia type 2 (SCA2) is a multisystem neurodegenerative disease caused by a dominantly-acting mutation leading to expansion of a polyQ domain in the ataxin-2 protein (ATXN2). […] […] cultured cells will be dosed with titrated compounds and incubated for 72 hr at 37 degrees C. Toxicity will be assessed using the CellTiter Glo kit (Promega), which uses intracellular ATP concentration as a viability marker.
Records with an inconclusive call do not appear. Active and inactive are the calls of the source. The call rests on the fitted dose curve; in most records, active means well fitted cell-killing curve with a large enough effect; inconclusive means small, poorly fitted or top-dose-only effect, or effect the other way; inactive means flat fitted curve, though single readings scatter.
// allowed return values: active, inactive

Worked examples, 5 molecules total:
# molecule, class
records = [
    ("Cc1cnc(NC(=O)C2=C(O)c3ccccc3S(=O)(=O)N2C)s1", "inactive"),
    ("Cn1cnc([N+](=O)[O-])c1Sc1ncnc2nc[nH]c12", "inactive"),
    ("O=c1n(CCCN2CCN(c3cccc(Cl)c3)CC2)nc2ccccn12", "inactive"),
    ("NC[C@H](O)c1ccc(O)c(O)c1", "inactive"),
    ("CN1CCN(CCCN2c3ccccc3Sc3ccc(C(F)(F)F)cc32)CC1", "active"),
]

Please examine the following record next.
Exercise: Outcome? CCn1cc(C(=O)O)c(=O)c2cc(F)c(N3CCNC(C)C3)c(F)c21 (stereo unspecified)
Solution: inactive

###

System: Tov112D
test_name: Primary qHTS to identify gynecologic anti-cancer compounds using libraries of approved drugs and bioactive compounds (AID 1345084); note: nearly all actives have a fitted effect of over 55% in size
run_conditions: Gynecologic cancer cell panel viability, ATPlite luminescence, 48 h; series mostly up to 57.5 µM
Inconclusive results are not listed. The source made the active and inactive calls. The call rests on the fitted dose curve; in most records, active means well fitted cell-killing curve with a large enough effect; inconclusive means small, poorly fitted or top-dose-only effect, or effect the other way; inactive means flat fitted curve, though single readings scatter.
// allowed return values: class 1 (active), class 0 (inactive)

Exercise: Outcome? C[C@]12CCC(=O)C=C1CC[C@@H]1[C@@H]2[C@@H](O)C[C@@]2(C)[C@H]1CC[C@]2(O)C(=O)CO
Solution: class 0

Exercise: Outcome? CC(C)(N)C(=O)N[C@H](COCc1ccccc1)C(=O)N1CCC2(CC1)CN(S(C)(=O)=O)c1ccccc12
Solution: class 0

Exercise: Outcome? COc1ccccc1[C@H](c1cccc2ccccc12)[C@@](C)(C#N)C(=O)N1CCC(c2cccc(C(F)(F)F)c2)CC1
Solution: class 0

Exercise: Outcome? COc1nc(-c2ccc3c(c2)OCO3)n(-c2ccc(NC(=O)CSc3ccccc3)cc2)n1
Solution: class 0

Exercise: Outcome? CS(=O)(=O)c1cccc(CNc2nc(Nc3ccc4c(c3)CCC(=O)N4)ncc2C(F)(F)F)c1
Solution: class 0

Exercise: Outcome? O=c1n(CCCN2CCN(c3cccc(Cl)c3)CC2)nc2ccccn12
Solution: class 0

Exercise: Outcome? C1COC(NC(C2CC2)C2CC2)=N1
Solution: class 0

Exercise: Outcome? CNC[C@H](O)c1cccc(O)c1
Solution: class 0

Exercise: Outcome? NC(N)=NC(=O)c1nc(Cl)c(N)nc1N
Solution: class 0

Exercise: Outcome? Cc1[nH]c(=O)c(C#N)cc1-c1ccncc1
Solution: class 0

###

test_name: Identifying Small Molecule Inhibitors of Pancreatic Cancer Stem Cells (SN12C, Spheroid) (AID 1259360)
run_conditions: SN12C spheroid viability; series mostly up to 46.1 µM
Results filed as inconclusive are left out. Calls of active or inactive are those of the source. Calls follow the shape of the dose curve; as a rule, active = well fitted cell-killing curve with a large enough effect; inconclusive = small, poorly fitted or top-dose-only effect, or effect the other way; inactive = flat fitted curve, though single readings scatter.
// allowed return values: active, inactive

# compound, class
measured = [
    ("CCC(C)N(C)C(=O)c1cc2ccccc2c(-c2ccccc2Cl)n1 (centres undefined)", "inactive"),
    ("COc1ccc(CCN2CCN(CCCc3ccccc3)CC2)cc1OC", "active"),
    ("N#Cc1ccc(C(c2ccc(C#N)cc2)n2cncn2)cc1", "inactive"),
]

Exercise: Outcome? C[C@]12CC[C@H](O)CC1=CC[C@@H]1[C@H]2CC[C@]2(C)C(c3cccnc3)=CC[C@H]12
Solution: inactive

Exercise: Outcome? OCCC#Cc1nc(-c2ccc(F)cc2)c(-c2ccncc2)n1CCCc1ccccc1
Solution: active

Exercise: Outcome? CC1(C)CNc2cc(NC(=O)c3cccnc3NCc3ccncc3)ccc21
Solution: inactive

Exercise: Outcome? CNC(=O)c1ccc(C)c(-n2c(C)cc(OCc3ccc(F)cc3F)c(Br)c2=O)c1
Solution: active

Exercise: Outcome? COc1ccc2c3n(c(=NC(=O)c4cccnc4)nc2c1OC)CCN3
Solution: active

Exercise: Outcome? C[C@]12CCC(=O)C=C1CC[C@@H]1[C@@H]2[C@@H](O)C[C@@]2(C)[C@H]1CC[C@]2(O)C(=O)CO
Solution: inactive

###

test_name: qHTS of pediatric cancer cell lines to identify multiple opportunities for drug repurposing: Primary screen for LAN-5 cells (AID 1347100)
run_conditions: LAN-5 neuroblastoma viability, CellTiter-Glo luminescence, 48 h; series mostly up to 46 µM
Records with an inconclusive call do not appear. The source made the active and inactive calls. Calls follow the shape of the dose curve; as a rule, active = well fitted cell-killing curve with a large enough effect; inconclusive = small, poorly fitted or top-dose-only effect; inactive = no such curve, though single readings can be large or run the other way.
// allowed return values: active, inactive

# compound, class
records = [
    ("CC(c1cc2ccccc2s1)N(O)C(N)=O (centres undefined)", "inactive"),
    ("CC(=O)Oc1ccccc1C(=O)O", "inactive"),
    ("COc1cc2nccc(Oc3ccc(NC(=O)NC4CC4)c(Cl)c3)c2cc1C(N)=O", "active"),
]

Please examine the following record next.
Exercise: Outcome? COc1cc2c(cc1OC)CN(CCc1ccc(NC(=O)c3cccc4c(=O)c5cccc(OC)c5[nH]c34)cc1)CC2
Solution: inactive

###

test_name: qHTS of pediatric cancer cell lines to identify multiple opportunities for drug repurposing: Confirmatory screen for BT-37 cells (AID 1347117);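 note: viability measured after 48 h of compound exposure; nearly all actives have a fitted effect of over 55% in size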
run_conditions: BT-37 pediatric cancer cells, viability; series mostly up to 45.9 µM
Results filed as inconclusive are left out. Active and inactive are the calls of the source. Calls come from the whole dose curve; as a rule, active = well fitted cell-killing curve with a large enough effect; inconclusive = small, poorly fitted or top-dose-only effect; inactive = no such curve, though single readings can be large or run the other way.
// allowed return values: True (active), False (inactive)

Worked examples, 2 compounds total:
# compound, class
data = [
    ("Cc1c(C)c2c(c(C)c1O)CCC(C)(COc1ccc(CC3SC(=O)NC3=O)cc1)O2 (stereo not given)", "False"),
    ("OC[C@H](Cc1ccccc1)Nc1nc(Oc2ccc3c(c2)CCC3)nc2c1ncn2Cc1ccc(-c2ccccc2)cc1", "False"),
]

Exercise: Outcome? COc1ccc(-c2ccc3c(N4CCOC[C@H]4C)nc(N4CCOC[C@H]4C)nc3n2)cc1CO
Solution: True

Exercise: Outcome? Cc1c(CN2CCN(C(=O)C(C)C)CC2)sc2c(N3CCOCC3)nc(-c3cnc(N)nc3)nc12
Solution: True

Exercise: Outcome? COc1cccc2cc(-c3nc(C4CCC(C(=O)O)CC4)n4ncnc(N)c34)[nH]c12 (stereo not given)
Solution: False
